Record form. Attribute: Fold Change to Parental Apparent KD. Fill in for each entry.
TARGET: T1, human CD8 on human T cells (human, UniProt P01732 22-235)
T1 construct: whole, on cells; the antibodies were raised against human CD8 alpha; also called CD8 on human CD8+ T cells; hCD8
T1 sequence (P01732 22-235): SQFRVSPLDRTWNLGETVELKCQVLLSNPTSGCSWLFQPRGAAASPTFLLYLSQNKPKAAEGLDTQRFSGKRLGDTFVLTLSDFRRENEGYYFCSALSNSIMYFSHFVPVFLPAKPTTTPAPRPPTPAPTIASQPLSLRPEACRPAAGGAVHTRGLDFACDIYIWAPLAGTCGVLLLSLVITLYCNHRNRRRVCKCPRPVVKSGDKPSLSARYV
PROCEDURE_DETAILS: flow cytometry on human CD8+ T cells, titration
Give bare numbers, in fold.

Guide cases for Fold Change to Parental Apparent KD, answers given:
Q: Annotate the binder Murine 02A01 (antibody, V domains shown, Recombinantly produced IgG; also called 02-parental; 02-Parent) VH: EVQLQQSGPELVKPGASLKISCKASGYTFTDFTMHWVKQSHGKSLEWIGLVNPNNGGNIYNQNFKGKATLTVDTSSSTAYMELRSLTSEDSSVYYCGRVPLYTSHGMDYWGQGTSVTVSS VL: DIVLTQSPAFLAVSLGQRATISCRASESVDSYDINSMHWYQQKPGQPPKLLIYRASHLQSGIPARFSGSGSRTDFTLTINFVEADDVATYYCQQSNEDPLTFGAGTKLELK with its measured Fold Change to Parental Apparent KD.
Ans: 1

Q: Annotate the binder humanized 02A01-VH6-VK4 (antibody, human IgG1, V domains shown, human IgG1 format; also called 02-VH6-VK4) VH: EVQLVQSGAEVKKPGATVKISCKASGYTFTDFTMHWVQQAPGKGLEWIGLVNPNNGGNIYAEKFQGRVTLTVDTSTSTAYMELSSLRSEDTAVYYCGRVPLYTSHGMDYWGQGTLVTVSS VL: EIVLTQSPATLSVSPGERATISCRASESVDSYDINSMHWYQQKPGQAPRLLIYDASNRATGIPARFSGSGSRTDFTLTISSVEPEDFATYYCQQSNEDPLTFGQGTKLEIK with its measured Fold Change to Parental Apparent KD.
Ans: 1.12

---
Q: Annotate the binder humanized 02A01-VH4-VK3 (antibody, human IgG1, V domains shown, human IgG1 format; also called 02-VH4/VK3) VH: EVQLVQSGAEVKKPGATVKISCKASGYTFTDFTMHWVQQAPGKGLEWIGLVNPNNGGNIYAEKFQGRATLTVDTSTSTAYMELSSLRSEDTAVYYCGRVPLYTSHGMDYWGQGTLVTVSS VL: EIVLTQSPATLSLSPGERATISCRASESVDSYDINSMHWYQQKPGQAPRLLIYRASHLQSGIPARFSGSGSRTDFTLTISSLEPEDFATYYCQQSNEDPLTFGQGTKLEIK with its measured Fold Change to Parental Apparent KD.
Ans: 1.56
